Recorded attenuation of the ability of ApoC3 to inhibit VLDL uptake by HepG2 cells values for a group of binders are listed next.
- Target Under Test: human ApoC3 (huApoC3), native protein purified from human serum (human, UniProt P02656 21-99); note: test concentration or dose not given here
- Sequence (P02656 21-99): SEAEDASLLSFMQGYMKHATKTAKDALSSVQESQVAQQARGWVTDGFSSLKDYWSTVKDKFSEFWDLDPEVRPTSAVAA
- Method: cell-based or functional assay
Readout Kind: attenuation of the ability of ApoC3 to inhibit VLDL uptake by HepG2 cells

• 5A11 scFv-Fc (Fc fusion, scFv-Fc format) VH: QVQVQESGPGLVKPSQTLSLTCTVSGVSITTRYYAWSWIRQPPGKGLEWMGVIAYDGSTYYSPSLKSRTSISRDTSKNQFSLQLTSVTPEDTAVYYCARVRLIEAPYEYDYWGQGTQVTVSS VL: QAVVTQEPSLSVSPGGTVTLTCGLSSGSVTTRSYPGWFQQTPGQAPRSLIHSTSSRHSGIPTRFSGSISGNKAALTITGAQPEDEADYYCALDIGSYIVFGGGTHLTVL = ~55%
• 12D4 scFv-Fc (Fc fusion) VH: QLQLVESGGGLVQPGGSLRVSCAASGFTFSSSNMRWVRQVSGKGLEWVSTISPDGGKTLYADSVKGRFTISRDNAKNTLHLQMVSLKPEDTALYYCVKAGYDYWGQGTQVTVSS VL: ATMLTQSPGSLSVVPGESASISCKASQSLVHSDGKTYLYWLLQKPGQSPQRLIYQVSNQGSGVPDRFTGSGSGTDFTLKISGVKAEDAGVYYCAQATYAPHSFGSGTRLEIK = ~60%
• 12C12 scFv-Fc (Fc fusion) VH: EVQVQESGPGLVKPSQTLSLTCTVSGGSITTSYYAWTWIRQPPGKGLEWVGAIVYDGSTFYSPSLKSRTSISRDTSKSQFSLQLSSVTPEDTAVYYCARSYGLGLYDLWGQGTQVTVSS VL: QAVLTQPPSVSGSPGQKFTISCTGSSSNIGDNYVNWYQHLPGTAPKLLIYSNSNRASGVPDRFSGSKSGSSASLTITGLQAEDEADYYCSSWDDSLSGVVFGGGTHLTVL = ~100%
• 5A4 scFv-Fc (Fc fusion, scFv-Fc format) VH: QLQLVESGGGLVQPGGSLRLSCVASGFAFSHYTMYWVRQAPVRGLERVSAISGGGDRTIYTDSVKGRFTISRDNAANALYLQMNSLQPEDTAVYYCVAQGYEYWGQGTRVTVSS VL: ATMLTQSPGSLSVVPGESASISCKAIQSLVHTDGKTYLYWFLQKPGQSPQRLIYQVSNRGSGVPDRFTGSGSGTDFTLKISGVKAEDAGVYYCAQGTYSSKTFGQGTKLEIK = ~100%
• 12C3 scFv-Fc (Fc fusion) VH: ELQLVESGGGLVQPGGSLRLSCAASGFTFSSYSMFWVRQSPGKGLERVSGINGGGDRSNYADSVRDRFTISRDNAKNTLYLQMNSLKSEDTAVYYCVIQGYAYWGQGTQVTVSS VL: DVVLTQTPASLSVVPGESASISCKASQSLVHSDGKTYLYWLLQKPGQSPQRLIYQTSNRGSGVPDRFTGSGSGTDFTLDISGVKAEDAGVYYCAQATYSPHTFGSGTRLEIK = ~85%
